Data credit: patent US20210177828A1

# test: PK assay in rat (IV and PO)
# Type: in vivo
# assay_context: plasma, SD rats, IV 1 mg/kg, read-out: AUClast iv (area under plasma concentration-time curve, 0-24 h)
Response field label takes T when AUC(0-t) is strictly below 4 µg·h/mL and F in all other cases.

# count of solved cases: 2
COc1cc2nccc(Oc3cnc(NC(=O)c4nn(C5CCOCC5)cc(-c5ccc(C)cc5)c4=O)nc3)c2cc1OC ... T
COc1cc2nccc(Oc3ccc(NC(=O)c4cn(C5CCOCC5)cc(-c5ccc(C)cc5)c4=O)nc3)c2cc1OC ... T

Given COc1cc2nccc(Oc3ccc(NC(=O)c4nn(C5CCOCC5)cc(-c5ccc(F)cc5)c4=O)nc3)c2cc1OC , is recorded AUC(0-t) strictly lower than 4 µg·h/mL?
F

Input COc1cc2nccc(Oc3ccc(NC(=O)c4cc(-c5ccc(C)cc5)cn(CC5CCOCC5)c4=O)nc3)c2cc1OC ; condition: AUC(0-t) strictly below 4 µg·h/mL. Does it hold?
F

Quick check: does COc1cc2nccc(Oc3ccc(NC(=O)c4nn(C5CCOCC5)cc(-c5ccc(C)cc5)c4=O)nc3)c2cc1OC have AUC(0-t) under 4 µg·h/mL?
F
